Below, each of the compounds is paired with its reported mass density value.
conditions: 353.15 K; 101 kPa; Liquid; Vibrating tube method
± gives the expanded uncertainty stated by the source.
property: mass density

| smi | property | observed_measurement |
| --- | --- | --- |
| CN(CCO)CCO | mass density | 993.889 ± 0.83 kg/m3 |
| O | mass density | 971.788 ± 0.046 kg/m3 |
| CCN(CC)CCO | mass density | 828.488 ± 0.23 kg/m3 |
| CN(C)CCO | mass density | 833.288 ± 0.13 kg/m3 |
| CNCCCN | mass density | 797.093 ± 0.62 kg/m3 |
